- tested system: Gal3S(b1-3)GlcNAc
- assay protocol: glycan array binding signal (z-score within array); higher = stronger binding
- details: glycan notation: IUPAC condensed, linker removed
The sample as a whole holds a higher share of the strongest signals than the screen did.
experimental endpoint: glycan array binding signal (z-score)
Could you keep your reply to the number by itself?

binder	glycan array binding signal (z-score)
ArathEULS3 (Arabidopsis thaliana), Q945P1 (protein) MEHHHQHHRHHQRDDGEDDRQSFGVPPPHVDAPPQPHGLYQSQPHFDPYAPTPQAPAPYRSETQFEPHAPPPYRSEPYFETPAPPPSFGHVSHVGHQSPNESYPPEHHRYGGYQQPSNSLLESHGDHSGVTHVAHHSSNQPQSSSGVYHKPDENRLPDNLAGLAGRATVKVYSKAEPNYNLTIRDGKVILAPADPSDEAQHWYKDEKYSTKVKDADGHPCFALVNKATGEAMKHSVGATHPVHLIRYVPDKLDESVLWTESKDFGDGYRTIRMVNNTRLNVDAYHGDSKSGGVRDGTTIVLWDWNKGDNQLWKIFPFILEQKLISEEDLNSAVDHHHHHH	-0.279
CM2 (Cordyceps militaris) (protein) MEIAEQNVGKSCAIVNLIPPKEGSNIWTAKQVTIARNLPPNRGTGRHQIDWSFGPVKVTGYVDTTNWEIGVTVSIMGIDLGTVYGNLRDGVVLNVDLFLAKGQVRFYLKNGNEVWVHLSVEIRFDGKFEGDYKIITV	0.015
CTMLA2 (Anopheles gambiae), Q7Q7F8 (protein) MNLMITILIAVITVVRGDLSVPKTVDDILQQNPCLCPCKPFEEKEYFIPISRTSDWFGAVAYCHSVGMELAEVLNEDEARAMGEVIAEEESDSDDEFYWIGANDLGVQGTYRWALAGRPVLYSQWAAGEPNHARGENGQQPAERCVAVAMDKYEWNDFQCTQQKPFICQQFRKH	1.6

Shifting focus to the binder that follows.
Q: Recorded glycan array binding signal (z-score) for AMA (Arum maculatun) (protein) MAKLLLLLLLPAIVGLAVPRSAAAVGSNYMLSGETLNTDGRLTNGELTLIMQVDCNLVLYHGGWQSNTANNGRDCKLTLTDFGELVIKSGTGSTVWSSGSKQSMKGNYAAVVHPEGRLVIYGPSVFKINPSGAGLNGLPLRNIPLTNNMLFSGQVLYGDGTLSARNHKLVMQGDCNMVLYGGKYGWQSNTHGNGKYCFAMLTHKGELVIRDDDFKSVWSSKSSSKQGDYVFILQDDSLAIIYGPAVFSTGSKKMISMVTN , please?
Result: -0.209
